src = PubChem BioAssay (NCI)

test system: T-47D breast; experiment: NCI-60 one-dose screen, 48 h (100 = growth as untreated, 0 = no growth, -100 = all killed); details: 10 µM unless noted
The panel holds about 83,000 compounds, 20% with a hit somewhere; the sample as a whole holds those more often.
Consider the following compounds; for each one, report its growth.
Answers are plain numbers, in %.

Check out these entries, answers already filled in.
COMPOUND | UNITS_OF_MEASURE | RECORDED_MEASUREMENT
C#Cc1cc(C(=O)Nc2ccc(CNCCN3CCOCC3)c(C(F)(F)F)c2)ccc1C | % | 82.1
O=C(/C=C/c1ccccc1Cl)Nc1ncc(Cc2cc(Cl)ccc2Cl)s1 | % | 29.9
O=C(CSc1nc2ccccc2c(=O)n1CCc1ccccc1)Nc1ccc(S(=O)(=O)Nc2ccc(Cl)nn2)cc1 | % | 88.6
Cn1c2nc3ccccc3c-2cc2ccccc21 | % | 37.4
COc1ccccc1Cn1cc(C#N)c(N)c1C(=O)c1ccc(Br)cc1 | % | 74.1
Clc1ccc2[nH]cc(-c3nn4cc(-c5cccnc5)nc4s3)c2c1 | % | 71.5

Please give growth for each item listed below.
1. CCCc1cc2cc(-n3nc(CC)c4c3CC(C)(C)CC4=O)cc(NC3CCC(O)CC3)c2c(=O)[nH]1 (centres undefined)
2. CNC(=O)c1cc(N2CCc3cc(NC(=O)Nc4ccc(N5CCOCC5)c(C(F)(F)F)c4)ccc32)ccn1
3. CCCCOc1ccc(S(=O)(=O)N2CCN(c3nc(C)cc(N4CCOCC4)n3)CC2)cc1

Output:
[29.6, 28.1, 55.9]

Please give growth for each item listed below.
1. O=C(CSc1nc2ccccc2c(=O)n1-c1ccc(S(=O)(=O)Nc2ccc(Cl)nn2)cc1)Nc1ccc(S(=O)(=O)Nc2ccc(Cl)nn2)cc1
2. CCOC(=O)c1c(NC(=O)c2ccc(C(F)(F)F)cc2)sc2c3c(ccc12)OCN(C)C3
3. N#C/C(=N\Nc1ccc(F)cc1)C(=O)Nc1cc(-c2ccccc2)nn1-c1ccccc1
4. COc1cccc2c1[C@H](OC)[C@]13O[C@@]1(C2=O)[C@H](O)[C@H](C)[C@@](O)(C(=O)[C@@H]1O[C@H]1C)[C@@H]3O
5. O=C(COc1ccc(/C=C2\C(=O)Nc3ccc(Cl)cc32)cc1)Nc1ccc(Cl)cc1
6. N#Cc1c(-c2cccs2)cc(-c2cnccn2)nc1SCC(=O)N/N=C/c1ccc(Cl)cc1

Output:
98.1
4.14
-5.1
-11.8
68.8
93.8

Please give growth for each item listed below.
1. Cc1ccc(NC2=C(Cl)C(=O)c3nc(C)ccc3C2=O)c(C)c1
2. CCOC(=O)c1cccc(NC2=C(Cl)C(=O)C(C)=C(C)C2=O)c1

Output:
[-46.1, -37.5]

Please give growth for each item listed below.
1. O=S1SC(c2ccccc2)=NN1c1cc(F)cc(F)c1 (centres undefined)
2. COc1ccc(C(C)=C(c2ccc(OCCN(C)C)cc2)c2ccc(OCCN(C)C)cc2)cc1

Output:
1.86
-60.6

* * *

system: UACC-257 melanoma; assay: NCI-60 one-dose screen, 48 h (100 = growth as untreated, 0 = no growth, -100 = all killed); conditions: 10 µM unless noted
This is part of a sample that, as a whole, favours compounds with a hit. Of some 83,000 tested, about 20% had one in any assay.
MEASUREMENT_KIND: growth (%)
Answers are plain numbers, in %.

Please give growth for each item listed below.
1. Nn1c(=O)n(-c2cccc(C(F)(F)F)c2)c(=O)c2cc(-c3ccc(F)cc3F)ccc21
2. Brc1cc(-c2cc(-c3ccc4c(c3)OC=CO4)[nH]n2)cs1

Output:
1. -8.9
2. 101

Please give growth for each item listed below.
1. Nc1nc(=O)n([C@H]2C[C@H](O)[C@@H](CO)O2)cc1C=O
2. COc1ccc(Cn2cc(C#N)c(N)c2C(C)=O)cc1
3. Cc1ccc(C(=O)CSc2nnc(-c3ccc(-c4ccc(Cl)cc4)nc3C)o2)cc1

Output:
115
106
118
